system: HCT116 (human colorectal cancer cell line); test: MTT anti-proliferative assay, HCT116; assay type: cell-based; settings: Homo sapiens, HCT-116, 48 h incubation, means ± SD, n = 3
measurement.name: IC50 (µM)

{"columns": ["smiles.entry", "value.units", "test.value"],
 "data": [
  ["COc1ccc(-n2cnn(CCOC(=O)[C@]34CCC(C)(C)C[C@H]3C3=CC[C@@H]5[C@@]6(C)CC[C@H](O)[C@@](C)(C=O)[C@@H]6CC[C@@]5(C)[C@]3(C)C[C@H]4O)c2=O)cc1", "µM", 3.21],
  ["CC1(C)CC[C@]2(C(=O)OCCn3ncn(-c4ccccc4)c3=O)[C@H](O)C[C@]3(C)C(=CC[C@@H]4[C@@]5(C)CC[C@H](O)[C@@](C)(C=O)[C@@H]5CC[C@]43C)[C@@H]2C1", "µM", 4.43],
  ["CC1(C)CC[C@]2(C(=O)OCc3cn(-c4ccc(F)cc4)nn3)[C@H](O)C[C@]3(C)C(=CC[C@@H]4[C@@]5(C)CC[C@H](O)[C@@](C)(C=O)[C@@H]5CC[C@]43C)[C@@H]2C1", "µM", 3.04],
  ["CC1(C)CC[C@]2(C(=O)OCc3nnc(-c4ccc(F)cc4)o3)[C@H](O)C[C@]3(C)C(=CC[C@@H]4[C@@]5(C)CC[C@H](O)[C@@](C)(C=O)[C@@H]5CC[C@]43C)[C@@H]2C1", "µM", 3.12],
  ["CC1(C)CC[C@]2(C(=O)OCCn3ncn(-c4ccc(Cl)cc4)c3=O)[C@H](O)C[C@]3(C)C(=CC[C@@H]4[C@@]5(C)CC[C@H](O)[C@@](C)(C=O)[C@@H]5CC[C@]43C)[C@@H]2C1", "µM", 3.11]
]}
